- assay.protocol: Comparative pharmacokinetic study, single-dose administration in mice
- Type: in vivo
- study.conditions: male, CD1, mouse, plasma, oral, 80 mg/kg, single dose
attribute.measured: Cmax at 24 h (ng/mL)

Cn1c(=O)c2c(ncn2CC2OCCO2)n(C)c1=O [doxophylline]: 18700
[2H]C1([2H])OC(Cn2cnc3c2c(=O)n(C)c(=O)n3C)OC1([2H])[2H] [d4-doxophylline]: 16800
[2H]C1([2H])OC([2H])(C([2H])([2H])n2cnc3c2c(=O)n(C)c(=O)n3C)OC1([2H])[2H] [d7-doxophylline]: 19200

====

- assay.protocol: Comparative pharmacokinetic study, single-dose administration in minipigs
- Type: in vivo
- study.conditions: male, Göttingen, minipig, plasma, oral, 20 mg/kg
- Protocol: A comparative pharmacokinetic study was then performed by evaluating the plasma concentration profiles of doxophylline and its deuterated analogues after intravenous and oral single-dose administration in mice and minipigs. […] The pharmacokinetic parameters for doxophylline and its deuterated analogues were calculated by plotting the plasma concentration curves versus time obtained from the average values of three animals, using PK Solver 2.0.1 S7
attribute.measured: CL/F (mL/min/kg)

Cn1c(=O)c2c(ncn2CC2OCCO2)n(C)c1=O: 1.17
[2H]C1([2H])OC(Cn2cnc3c2c(=O)n(C)c(=O)n3C)OC1([2H])[2H]: 1.17
[2H]C1([2H])OC([2H])(C([2H])([2H])n2cnc3c2c(=O)n(C)c(=O)n3C)OC1([2H])[2H]: 1.17

====

- assay.protocol: Comparative pharmacokinetic study, single-dose administration in minipigs
- Assay type: in vivo
- study.conditions: male, Göttingen, minipig, plasma, intravenous, 5 mg/kg
attribute.measured: Cmax (ng/mL)

[2H]C1([2H])OC([2H])(C([2H])([2H])n2cnc3c2c(=O)n(C)c(=O)n3C)OC1([2H])[2H]: 8260
Cn1c(=O)c2c(ncn2CC2OCCO2)n(C)c1=O: 7500
[2H]C1([2H])OC(Cn2cnc3c2c(=O)n(C)c(=O)n3C)OC1([2H])[2H]: 7420

====

- assay.protocol: Comparative pharmacokinetic study, single-dose administration in mice
- Assay type: in vivo
- study.conditions: male, CD1, mouse, plasma, oral, 80 mg/kg, single dose
attribute.measured: half-life at 24 h (h)

[2H]C1([2H])OC([2H])(C([2H])([2H])n2cnc3c2c(=O)n(C)c(=O)n3C)OC1([2H])[2H] [d7-doxophylline]: 2.1
[2H]C1([2H])OC(Cn2cnc3c2c(=O)n(C)c(=O)n3C)OC1([2H])[2H] [d4-doxophylline]: 1.7
Cn1c(=O)c2c(ncn2CC2OCCO2)n(C)c1=O [doxophylline]: 1.6

====

- assay.protocol: Comparative pharmacokinetic study, single-dose administration in minipigs
- Type: in vivo
- study.conditions: male, Göttingen, minipig, plasma, oral, 20 mg/kg
attribute.measured: Cmax (ng/mL)

[2H]C1([2H])OC([2H])(C([2H])([2H])n2cnc3c2c(=O)n(C)c(=O)n3C)OC1([2H])[2H]: 13000
Cn1c(=O)c2c(ncn2CC2OCCO2)n(C)c1=O: 14000
[2H]C1([2H])OC(Cn2cnc3c2c(=O)n(C)c(=O)n3C)OC1([2H])[2H]: 15800

====

- assay.protocol: Comparative pharmacokinetic study, single-dose administration in mice
- Type: in vivo
- study.conditions: male, CD1, mouse, plasma, intravenous, 20 mg/kg, single dose
attribute.measured: half-life at 24 h (h)

Cn1c(=O)c2c(ncn2CC2OCCO2)n(C)c1=O: 1.1

1 = [2H]C1([2H])OC(Cn2cnc3c2c(=O)n(C)c(=O)n3C)OC1([2H])[2H]
2 = [2H]C1([2H])OC([2H])(C([2H])([2H])n2cnc3c2c(=O)n(C)c(=O)n3C)OC1([2H])[2H]
Query: Lowest half-life at 24 h? choose 1 or 2 The response must carry the label of the picked entry.
Response: 2
